- System: cAMP production in RINm5F cells
- ASSAY METHOD TEXT: cAMP production in RINm5F cells (Example 5)
- Format: cell-based
- TEST CONDITIONS: 30 minutes at 37° C., 0.1 mM IBMX, mean ± SEM
MEASURED PARAMETER: Maximal response (pmol/mg protein)
One number for each entry, in pmol/mg protein.

[Q] cAMP production in RINm5F cells / Maximal response / trans-3-hexenoyl-NH-His-Ala-Glu-Gly-Thr-Phe-Thr-Ser-Asp-Val-Ser-Ser-Tyr-[(S)-Octylglycine]-Glu-Gly-Gln-Ala-Ala-Lys-Glu-Phe-Ile-Ala-Trp-Leu-Val-Lys-Gly-Arg-NH2 [TH0424] : value?
[A] 4.3

Could you report Maximal response for every entry in the following list?
1. His-Ala-Glu-Gly-Thr-Phe-Thr-Ser-Asp-Val-Ser-Ser-Tyr-[(S)-Octylglycine]-Glu-Gly-Gln-Ala-Ala-Lys-Glu-Phe-Ile-Ala-Trp-Leu-Val-Lys-Gly-Arg-NH2 [TH0322]
2. trans-3-hexenoyl-NH-His-Ala-Glu-Gly-Thr-Phe-Thr-Ser-Asp-Val-Ser-Ser-Tyr-[(S)-Octylglycine]-Glu-Gly-Gln-Ala-Ala-Lys-Ala-Phe-Ile-Glu-Trp-Leu-Val-Lys-Asn-NH2 [TH0396]
3. 2-Hydroxybenzoyl-NH-His-Ala-Glu-Gly-Thr-Phe-Thr-Ser-Asp-Val-Ser-Ser-Tyr-Leu-Glu-Gly-Gln-Ala-Ala-Lys-Glu-Phe-Ile-Ala-Trp-Leu-Val-Lys-Gly-Arg-NH2 [TH0318]
4. HAEGTFTSDVSSYLEGQAAKEFIAWLVKGR [GLP-1, reference compound]
5. trans-3-hexenoyl-NH-His-Ala-Glu-Gly-Thr-Phe-Thr-Ser-Asp-Val-Ser-Ser-Tyr-[(S)-Octylglycine]-Glu-Gly-Gln-Ala-Ala-Lys-Ala-Phe-Ile-Glu-Trp-Leu-Lys-Asn-NH2 [TH0395]
6. trans-3-hexenoyl-NH-His-Ala-Glu-Gly-Thr-Phe-Thr-Ser-Asp-Val-Ser-Ser-Tyr-[(S)-Octylglycine]-Glu-Gly-Gln-Ala-Ala-Lys-Glu-Phe-Ile-Ala-Trp-Leu-Val-Lys-Aib-Arg-NH2 [TH0426]

[A]
1.0
3.9
3.5
1.5
3.7
5.7
